B1: GAGE1 (parent)
chain: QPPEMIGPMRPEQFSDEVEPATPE

Variants of: B1
Assay: protein stability index of a GFP-peptide fusion (GPS, HEK-293T) (PSI 1-6); higher = more stable;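 note: lentivirally expressed fusions sorted by FACS into six bins by GFP to DsRed ratio, PSI derived from sequencing read proportions per bin multiplied by bin number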
Conditions: c terminus: a fixed tail appended
assay-metric: protein stability index

[[record]]
variant_name = "I6G"
assay_metric = "protein stability index"
quantitative_result = 5.45

[[record]]
variant_name = "P3Y"
assay_metric = "protein stability index"
quantitative_result = 5.32

[[record]]
variant_name = "D16Q"
assay_metric = "protein stability index"
quantitative_result = 5.6

[[record]]
variant_name = "S15A"
assay_metric = "protein stability index"
quantitative_result = 4.71

[[record]]
variant_name = "R10W"
assay_metric = "protein stability index"
quantitative_result = 5.34

[[record]]
variant_name = "P8H"
assay_metric = "protein stability index"
quantitative_result = 5.47

[[record]]
variant_name = "E19S"
assay_metric = "protein stability index"
quantitative_result = 5.18

[[record]]
variant_name = "S15R"
assay_metric = "protein stability index"
quantitative_result = 5.37

[[record]]
variant_name = "E12I"
assay_metric = "protein stability index"
quantitative_result = 5.69

[[record]]
variant_name = "Q1K"
assay_metric = "protein stability index"
quantitative_result = 4.57

[[record]]
variant_name = "E19Q"
assay_metric = "protein stability index"
quantitative_result = 5.33

[[record]]
variant_name = "A21I"
assay_metric = "protein stability index"
quantitative_result = 4.87

[[record]]
variant_name = "E19H"
assay_metric = "protein stability index"
quantitative_result = 5.04

[[record]]
variant_name = "M9V"
assay_metric = "protein stability index"
quantitative_result = 5.97

[[record]]
variant_name = "E17D"
assay_metric = "protein stability index"
quantitative_result = 4.85

[[record]]
variant_name = "I6H"
assay_metric = "protein stability index"
quantitative_result = 5.72

[[record]]
variant_name = "D16I"
assay_metric = "protein stability index"
quantitative_result = 5.39

[[record]]
variant_name = "P3I"
assay_metric = "protein stability index"
quantitative_result = 4.9

[[record]]
variant_name = "E12A"
assay_metric = "protein stability index"
quantitative_result = 5.33

[[record]]
variant_name = "M9F"
assay_metric = "protein stability index"
quantitative_result = 5.54

[[record]]
variant_name = "P3F"
assay_metric = "protein stability index"
quantitative_result = 5.22

[[record]]
variant_name = "M9E"
assay_metric = "protein stability index"
quantitative_result = 5.62


The reported numbers originate from the supplement of paper PMC10567573.
